Catalogue of TGI values
Test system: SW-620 colon
Test: NCI tumour cell line growth inhibition, 48 h

Below are worked cases with known answers.
MOLECULE | TGI
CCN(CC)CC(O)C1CCC(c2ccccc2)CC1 (stereo not given) | 80.9 µM
CSc1nc2c(c(=O)[nH]1)C(c1ccc(Cl)cc1)C1=C(N2)/C(=C/c2ccc(Cl)cc2)CNC1 (stereo not given) | 10 µM
O=C(CSc1nnc(-c2ccc(N=Cc3ccc(Cl)cc3)cc2)o1)Nc1cccc(Cl)c1 | > 100 µM
CC(=O)O[C@H]1[C@@H](N2CCN(C)CC2)C[C@H]2[C@@H]3CC=C4C[C@@H](N5CCCC5)CC[C@]4(C)[C@H]3CC[C@@]21C | > 100 µM
COc1ccc(-c2coc3cc(OC)cc(O)c3c2=O)cc1 | > 100 µM

## Input Quick one: TGI for COc1cc(/C=C(\C#N)c2ccccn2)cc(Br)c1O ?
## Output > 100 µM

## Input Quick one: TGI for CCOC1SC(SC)=NN1C(=O)C(OC(C)=O)C(OC(C)=O)C(OC(C)=O)C(OC(C)=O)C(=O)N1N=C(SC)SC1OCC (stereo not given) ?
## Output > 100 µM

## Input Quick one: TGI for CN(C(=O)c1cccs1)C(=S)N1CCN(c2ccccc2)CC1 ?
## Output > 100 µM

## Input Quick one: TGI for CP(C)(=S)P(C)(C)=S ?
## Output > 100 µM

## Input Quick one: TGI for COc1c(O)cc(C(=O)O[C@@H]2Cc3c(O)cc(O)cc3O[C@@H]2c2cc(O)c(O)c(O)c2)cc1O ?
## Output 59.8 µM

## Input Quick one: TGI for Cc1ccc(C(=O)NC(C)(C)C)cc1N=NN(C)C ?
## Output > 100 µM

## Input Quick one: TGI for CCC/C(=N\NC(=O)c1cc2ccccc2cc1O)C(CC)C(=O)CCC(=O)N(Cc1ccccc1)Cc1ccccc1 (stereo not given) ?
## Output > 100 µM

## Input Quick one: TGI for Oc1cc2ccccc2cc1-c1n[nH]c(=S)n1-c1ccc(Cl)cc1 ?
## Output > 100 µM

## Input Quick one: TGI for O=c1[nH]c(/C=C(\O)c2ccncc2)nc2ccccc12 ?
## Output > 100 µM

## Input Quick one: TGI for COc1cc(NC(N)=NCCC(C)(C)c2ccc(C(F)(F)F)cc2)ncc1C#N ?
## Output 4.14 µM

## Input Quick one: TGI for COc1cc2c3c(c4c5ccccc5[nH]c4c2c(OC)c1OC)C(=O)N(CCN1CCCCC1)C3=O ?
## Output 2.56 µM

## Input Quick one: TGI for CC1(C)C2CCC1(CC(=O)O)C(Cl)C2 (stereo not given) ?
## Output > 100 µM

## Input Quick one: TGI for Cc1ccc(NC(=O)c2nc(S(C)=O)oc2-c2ccc(F)cc2)cc1Nc1nccc(-c2cccnc2)n1 (stereo not given) ?
## Output 4.01 µM

## Input Quick one: TGI for CCOC(=O)NC(=O)c1cn(CCSCCOC(=O)NCCCCCCNC(=O)OCCSCCn2cc(C(=O)NC(=O)OCC)c(=O)[nH]c2=O)c(=O)[nH]c1=O ?
## Output > 100 µM

Measured values drawn from PubChem BioAssay (NCI) for this set.
